protocol text: Toxicity liver stage against HepG2, at 10uM
Assay type: cell-based
Parameters: test concentration 10 uM, cell line HepG2-A16-CD81EGFP
assay context: human, HepG2-A16-CD81EGFP cells; read-out: INHIBITION
Outcome: met for cytotoxicity at 10 µM of at least -10%; not met for anything lower.

Input: Exam item: decide whether the reported cytotoxicity at 10 µM for `COCc1noc(-c2ccc(N(C)Cc3ccc(C)o3)nc2)n1` is at least -10%.
Output: met

Input: Exam item: decide whether the reported cytotoxicity at 10 µM for CCC(c1ccc(F)cc1)S(=O)(=O)CCO (stereo not given) is at least -10%.
Output: not met

Input: Exam item: decide whether the reported cytotoxicity at 10 µM for NC(=O)NC(CC(=O)N1CCc2sccc2C1)c1ccccc1F (stereo not given) is at least -10%.
Output: met

Input: Exam item: decide whether the reported cytotoxicity at 10 µM for `CN(C)CC(=O)N1Cc2nc(C(=O)N3CCCN(C)CC3)oc2C1` is at least -10%.
Output: not met
